System: BEAS-2B (human normal lung epithelial cells)
Type: cell-based
Settings: 48 h exposure, 0-100 µM, resazurin fluorescence; means ± S.D, n = 3; read-out: IC50 on cell viability, BEAS-2B
The following compounds are shown together with reported IC50 values.

Solved cases (3 shown):
CC[C@H](C)[C@H]1C(=O)O[C@H](C(C)C)C(=O)N(C)[C@@H]([C@@H](C)CC)C(=O)O[C@H](C(C)C)C(=O)N(C)[C@@H]([C@@H](C)CC)C(=O)O[C@H](C(C)C)C(=O)N1C [ENN A] = 5.7 µM
CC[C@H](C)[C@H]1C(=O)O[C@H](C(C)C)C(=O)N(C)[C@@H](C(C)C)C(=O)O[C@H](C(C)C)C(=O)N(C)[C@@H](C(C)C)C(=O)O[C@H](C(C)C)C(=O)N1C [ENN B1] = 12.7 µM
CC[C@H](C)[C@H]1C(=O)O[C@H](C(C)C)C(=O)N(C)[C@@H]([C@@H](C)CC)C(=O)O[C@H](C(C)C)C(=O)N(C)[C@@H](C(C)C)C(=O)O[C@H](C(C)C)C(=O)N1C [ENN A1] = 6.4 µM

Looking up CC(C)[C@H]1C(=O)O[C@H](C(C)C)C(=O)N(C)[C@@H](C(C)C)C(=O)O[C@H](C(C)C)C(=O)N(C)[C@@H](C(C)C)C(=O)O[C@H](C(C)C)C(=O)N1C [ENN B] , I found its IC50 recorded as 43.7 µM

###

System: C. perfringens
Type: cell-based, Clostridium perfringens
Measurement Kind: membrane depolarization at 100 µM (%)
All answers are understood in %, so give the number only.

A selection of reference data follows.
CC[C@H](C)[C@H]1C(=O)O[C@H](C(C)C)C(=O)N(C)[C@@H]([C@@H](C)CC)C(=O)O[C@H](C(C)C)C(=O)N(C)[C@@H](C(C)C)C(=O)O[C@H](C(C)C)C(=O)N1C = 97.4
CC(C)[C@H]1OC(=O)[C@H](Cc2ccccc2)N(C)C(=O)[C@@H](C(C)C)OC(=O)[C@H](Cc2ccccc2)N(C)C(=O)[C@@H](C(C)C)OC(=O)[C@H](Cc2ccccc2)N(C)C1=O = 59.1
CC[C@H](C)[C@H]1C(=O)O[C@H](C(C)C)C(=O)N(C)[C@@H](C(C)C)C(=O)O[C@H](C(C)C)C(=O)N(C)[C@@H](C(C)C)C(=O)O[C@H](C(C)C)C(=O)N1C = 97.6
CC[C@H](C)[C@H]1C(=O)O[C@H](C(C)C)C(=O)N(C)[C@@H]([C@@H](C)CC)C(=O)O[C@H](C(C)C)C(=O)N(C)[C@@H]([C@@H](C)CC)C(=O)O[C@H](C(C)C)C(=O)N1C = 108.9

Next up:
For record CC(C)[C@H]1C(=O)O[C@H](C(C)C)C(=O)N(C)[C@@H](C(C)C)C(=O)O[C@H](C(C)C)C(=O)N(C)[C@@H](C(C)C)C(=O)O[C@H](C(C)C)C(=O)N1C the listed membrane depolarization at 100 µM is 44.9

###

In this section, each of the compounds is paired with its reported MIC, A. flavus.
Tested on: Aspergillus flavus (DSMZ 1959)
Conditions: DSMZ 1959, pH 7

CC[C@H](C)[C@H]1C(=O)O[C@H](C(C)C)C(=O)N(C)[C@@H](C(C)C)C(=O)O[C@H](C(C)C)C(=O)N(C)[C@@H](C(C)C)C(=O)O[C@H](C(C)C)C(=O)N1C = >100 µM

Form field, MIC, A. flavus with Aspergillus flavus (DSMZ 1959), item CC[C@H](C)[C@H]1C(=O)O[C@H](C(C)C)C(=O)N(C)[C@@H]([C@@H](C)CC)C(=O)O[C@H](C(C)C)C(=O)N(C)[C@@H](C(C)C)C(=O)O[C@H](C(C)C)C(=O)N1C : >100 µM

Kindly note: Aspergillus flavus (DSMZ 1959), CC(C)[C@H]1C(=O)O[C@H](C(C)C)C(=O)N(C)[C@@H](C(C)C)C(=O)O[C@H](C(C)C)C(=O)N(C)[C@@H](C(C)C)C(=O)O[C@H](C(C)C)C(=O)N1C , MIC, A. flavus value reported: >100 µM

// returns MIC, A. flavus for CC[C@H](C)[C@H]1C(=O)O[C@H](C(C)C)C(=O)N(C)[C@@H]([C@@H](C)CC)C(=O)O[C@H](C(C)C)C(=O)N(C)[C@@H]([C@@H](C)CC)C(=O)O[C@H](C(C)C)C(=O)N1C with Aspergillus flavus (DSMZ 1959); value = >100 µM

With Aspergillus flavus (DSMZ 1959) as the test system, CC(C)[C@H]1OC(=O)[C@H](Cc2ccccc2)N(C)C(=O)[C@@H](C(C)C)OC(=O)[C@H](Cc2ccccc2)N(C)C(=O)[C@@H](C(C)C)OC(=O)[C@H](Cc2ccccc2)N(C)C1=O showed MIC, A. flavus of >100 µM

###

Test system: C. perfringens
Format: cell-based, Clostridium perfringens
Note to self: values exactly at 70% are t. So membrane depolarization at four times their MIC at or above 70% is t, below is f.

CC(C)[C@H]1C(=O)O[C@H](C(C)C)C(=O)N(C)[C@@H](C(C)C)C(=O)O[C@H](C(C)C)C(=O)N(C)[C@@H](C(C)C)C(=O)O[C@H](C(C)C)C(=O)N1C = f
CC[C@H](C)[C@H]1C(=O)O[C@H](C(C)C)C(=O)N(C)[C@@H]([C@@H](C)CC)C(=O)O[C@H](C(C)C)C(=O)N(C)[C@@H]([C@@H](C)CC)C(=O)O[C@H](C(C)C)C(=O)N1C = t
CC[C@H](C)[C@H]1C(=O)O[C@H](C(C)C)C(=O)N(C)[C@@H]([C@@H](C)CC)C(=O)O[C@H](C(C)C)C(=O)N(C)[C@@H](C(C)C)C(=O)O[C@H](C(C)C)C(=O)N1C = t

Assess whether reported membrane depolarization at four times their MIC for CC(C)[C@H]1OC(=O)[C@H](Cc2ccccc2)N(C)C(=O)[C@@H](C(C)C)OC(=O)[C@H](Cc2ccccc2)N(C)C(=O)[C@@H](C(C)C)OC(=O)[C@H](Cc2ccccc2)N(C)C1=O sits at 70% or higher.
f

###

Test system: HEPG2 (human liver cell line)
Format: cell-based
Conditions: 48 h exposure, 0-100 µM, resazurin fluorescence; means ± S.D, n = 3; read-out: IC50 on cell viability, HEPG2
Measurement Kind: IC50 (µM)
Write the number in µM without appending the unit.

Worked cases, IC50 given:
CC[C@H](C)[C@H]1C(=O)O[C@H](C(C)C)C(=O)N(C)[C@@H]([C@@H](C)CC)C(=O)O[C@H](C(C)C)C(=O)N(C)[C@@H]([C@@H](C)CC)C(=O)O[C@H](C(C)C)C(=O)N1C = 3
CC[C@H](C)[C@H]1C(=O)O[C@H](C(C)C)C(=O)N(C)[C@@H]([C@@H](C)CC)C(=O)O[C@H](C(C)C)C(=O)N(C)[C@@H](C(C)C)C(=O)O[C@H](C(C)C)C(=O)N1C = 5.6
CC[C@H](C)[C@H]1C(=O)O[C@H](C(C)C)C(=O)N(C)[C@@H](C(C)C)C(=O)O[C@H](C(C)C)C(=O)N(C)[C@@H](C(C)C)C(=O)O[C@H](C(C)C)C(=O)N1C = 5.6

Moving on to the next molecule.
Field IC50 (entry CC(C)[C@H]1C(=O)O[C@H](C(C)C)C(=O)N(C)[C@@H](C(C)C)C(=O)O[C@H](C(C)C)C(=O)N(C)[C@@H](C(C)C)C(=O)O[C@H](C(C)C)C(=O)N1C ) reads 3.4

###

Details: lipid monolayer at air-water interface on PBS pH 7.4, peptide 1 µM, initial pressure 10-30 mN/m, extrapolated to delta pressure 0
I would appreciate it if you labelled entries Satisfied when critical pressure of insertion, POPC is 40 mN/m or higher, otherwise Not satisfied.

CC(C)[C@H]1C(=O)O[C@H](C(C)C)C(=O)N(C)[C@@H](C(C)C)C(=O)O[C@H](C(C)C)C(=O)N(C)[C@@H](C(C)C)C(=O)O[C@H](C(C)C)C(=O)N1C [ENN B] = Not satisfied
CC[C@H](C)[C@H]1C(=O)O[C@H](C(C)C)C(=O)N(C)[C@@H]([C@@H](C)CC)C(=O)O[C@H](C(C)C)C(=O)N(C)[C@@H](C(C)C)C(=O)O[C@H](C(C)C)C(=O)N1C [ENN A1] = Not satisfied
CC[C@H](C)[C@H]1C(=O)O[C@H](C(C)C)C(=O)N(C)[C@@H](C(C)C)C(=O)O[C@H](C(C)C)C(=O)N(C)[C@@H](C(C)C)C(=O)O[C@H](C(C)C)C(=O)N1C [ENN B1] = Not satisfied

Attention now shifts to the item below.
Given the entry CC(C)[C@H]1OC(=O)[C@H](Cc2ccccc2)N(C)C(=O)[C@@H](C(C)C)OC(=O)[C@H](Cc2ccccc2)N(C)C(=O)[C@@H](C(C)C)OC(=O)[C@H](Cc2ccccc2)N(C)C1=O [BEA, Beauvericin] , answer whether its critical pressure of insertion, POPC meets or surpasses 40 mN/m.
Satisfied
